Recorded Activity values for a group of molecules are listed next.
system: Plasmodium yoelii; experiment: Antimalarial activity against blood stage Plasmodium yoelii infected in CF1 mouse assessed as reduction in parasitemia at 5 mg/kg, po administered once daily for 4 days and measured on day 5 by Giemsa staining based microscopic analysis relative to control; assay type: functional; design: scale not given: the % may be the effect or the level left; conditions: time 4 day

{"querySmiles": "COC1=CC(c2ccc[nH]2)=N/C1=C\\c1cc(CCCCC(C)C)c(C)[nH]1.Cl", "displayUnit": "%", "Activity": 65}
{"querySmiles": "CCCCCCCc1cc(/C=C2\\N=C(c3ccc(Cc4ccc(O)cc4)[nH]3)C=C2OC)[nH]c1C.Cl", "displayUnit": "%", "Activity": 25}
{"querySmiles": "CCCCc1cc(/C=C2\\N=C(c3ccc[nH]3)C=C2OC)[nH]c1C.Cl", "displayUnit": "%", "Activity": 67}
{"querySmiles": "CCCCCc1cc(/C=C2\\N=C(c3ccc(Cc4ccc(OC)cc4)[nH]3)C=C2OC)[nH]c1C.Cl", "displayUnit": "%", "Activity": 60}

* * *

test system: Plasmodium falciparum; test: Antiplasmodial activity against asexual stage of chloroquine-sensitive Plasmodium falciparum D6 infected in human erythrocytes assessed as reduction in parasite growth incubated for 72 hrs by SYBR green 1 staining based assay; format: functional, organism-based; conditions: D6, Erythrocyte
Recorded IC50 values for a group of molecules are listed next.

{"querySmiles": "CCCCc1cc(/C=C2\\N=C(c3ccc(Cc4ccc(O)cc4)[nH]3)C=C2OC)[nH]c1C.Cl", "IC50": "12 nM"}
{"querySmiles": "CCCCCCc1cc(/C=C2\\N=C(c3ccc(Cc4ccc(O)cc4)[nH]3)C=C2OC)[nH]c1C.Cl", "IC50": "9 nM"}
{"querySmiles": "CCCCCc1cc(/C=C2\\N=C(c3ccc(Cc4ccc(O)cc4)[nH]3)C=C2OC)[nH]c1C.Cl", "IC50": "16 nM"}
{"querySmiles": "CCCCCCc1cc(/C=C2\\N=C(c3ccc[nH]3)C=C2OC)[nH]c1C.Cl", "IC50": "5.9 nM"}
{"querySmiles": "CCCCCc1cc(/C=C2\\N=C(c3ccc(Cc4ccc(OC)cc4)[nH]3)C=C2OC)[nH]c1C.Cl", "IC50": "2.4 nM"}
{"querySmiles": "COC1=CC2=N/C1=C\\NCC/C=C/CCCCCCCCc1ccc2[nH]1.Cl", "IC50": "22 nM"}
{"querySmiles": "CCCCCCCc1cc(/C=C2\\N=C(c3ccc[nH]3)C=C2OC)[nH]c1C.Cl", "IC50": "4.2 nM"}
{"querySmiles": "COC1=CC(c2ccc[nH]2)=N/C1=C\\c1cc(CCCCC(C)C)c(C)[nH]1.Cl", "IC50": "4.1 nM"}
{"querySmiles": "C=CCCCCCCCCc1ccc(C2=N/C(=C\\NCCC=C)C(OC)=C2)[nH]1.Cl", "IC50": "8.9 nM"}
